Settings: human, serum
Quantity: fraction unbound
When you answer, write just the number.

According to the records, this compound C=C(C)[C@@H]1CC[C@]2(NCCN3CCS(=O)(=O)CC3)CC[C@]3(C)[C@H](CC[C@@H]4[C@@]5(C)CC=C(c6ccc(C(=O)O)cc6)C(C)(C)[C@@H]5CC[C@]43C)[C@@H]12 [BMS-955176] displays fraction unbound of 0.18

====

Tested on: HIV-1 NL4-3 ΔV370 variant (NLRepRlucP373S/Δ370)
Assay type: cell-based
Conditions: Human immunodeficiency virus 1, NL43, MT2
With a cut-off of 4 nM, any EC50 strictly below it is called fulfilled; any EC50 meeting it or above is called not fulfilled.

| Compound | Group |
| --- | --- |
| C[C@H](Cn1cnc2c(N)ncnc21)OCP(=O)(O)O | not fulfilled |

## Input Answer whether the compound C=C(C)[C@@H]1CC[C@]2(C(=O)O)CC[C@]3(C)[C@H](CC[C@@H]4[C@@]5(C)CC[C@H](OC(=O)CC(C)(C)C(=O)O)C(C)(C)[C@@H]5CC[C@]43C)[C@@H]12 [BVM, reference compound] has EC50 strictly less than 4 nM
## Output not fulfilled

## Input Answer whether the compound `Cc1ccnc2c1NC(=O)c1cccnc1N2C1CC1` has EC50 strictly less than 4 nM
## Output not fulfilled

## Input Answer whether the compound `CC(C)CN(C[C@@H](O)[C@H](Cc1ccccc1)NC(=O)O[C@H]1CO[C@H]2OCC[C@H]21)S(=O)(=O)c1ccc(N)cc1` has EC50 strictly less than 4 nM
## Output not fulfilled

## Input Answer whether the compound `C=C(C)[C@@H]1CC[C@]2(NCCN3CCS(=O)(=O)CC3)CC[C@]3(C)[C@H](CC[C@@H]4[C@@]5(C)CC=C(c6ccc(C(=O)O)cc6)C(C)(C)[C@@H]5CC[C@]43C)[C@@H]12` has EC50 strictly less than 4 nM
## Output not fulfilled

## Input Answer whether the compound `COC(=O)N[C@H](C(=O)N[C@@H](Cc1ccccc1)[C@@H](O)CN(Cc1ccc(-c2ccccn2)cc1)NC(=O)[C@@H](NC(=O)OC)C(C)(C)C)C(C)(C)C` has EC50 strictly less than 4 nM
## Output fulfilled

## Input Answer whether the compound `Cc1nnc(C(=O)NC(C)(C)c2nc(C(=O)NCc3ccc(F)cc3)c(O)c(=O)n2C)o1` has EC50 strictly less than 4 nM
## Output fulfilled

## Input Answer whether the compound `Cc1c(O)cccc1C(=O)N[C@@H](CSc1ccccc1)[C@H](O)CN1C[C@H]2CCCC[C@H]2C[C@H]1C(=O)NC(C)(C)C` has EC50 strictly less than 4 nM
## Output not fulfilled

## Input Answer whether the compound `Nc1ccn([C@@H]2CS[C@H](CO)O2)c(=O)n1` has EC50 strictly less than 4 nM
## Output not fulfilled

====

# pEC50 per record follows
Test system: HIV-1 NL4-3 ΔV370 variant (NLRepRlucP373S/Δ370)
Type: cell-based
Conditions: Human immunodeficiency virus 1, NL43, MT2, read-out: EC50 (SD)
Lab note — pEC50 values are minus log10 of concentrations in M.

Before answering, review these 2 worked examples.
| Chem smiles | Quantity | Assay result |
| --- | --- | --- |
| C=C(C)[C@@H]1CC[C@]2(C(=O)NCCN(C)C)CC[C@]3(C)[C@H](CC[C@@H]4[C@@]5(C)CC=C(c6ccc(C(=O)O)cc6)C(C)(C)[C@@H]5CC[C@]43C)[C@@H]12 | pEC50 | 7.51 |
| C=C(C)[C@@H]1CC[C@]2(NCCN3CCS(=O)(=O)CC3)CC[C@]3(C)[C@H](CC[C@@H]4[C@@]5(C)CC=C(c6ccc(C(=O)O)cc6)C(C)(C)[C@@H]5CC[C@]43C)[C@@H]12 | pEC50 | 7.89 |

According to the records, this molecule `C=C(C)[C@@H]1CC[C@]2(C(=O)NCCc3ccccn3)CC[C@]3(C)[C@H](CC[C@@H]4[C@@]5(C)CC=C(c6ccc(C(=O)O)cc6)C(C)(C)[C@@H]5CC[C@]43C)[C@@H]12` displays pEC50 of 6.38

====

System: INI (140S, 148H) resistant virus (NLRepRluc-G140S/Q148H)
Assay type: cell-based, HIV-1
Quantity: Fold change in EC50 (SD) relative to parental strain

| Chem smiles | Assay result |
| --- | --- |
| O=C1Nc2ccc(Cl)cc2[C@@](C#CC2CC2)(C(F)(F)F)O1 | 0.60 (0.3) |
| Cc1ccnc2c1NC(=O)c1cccnc1N2C1CC1 | 0.89 (0.59) |

According to the records, this compound `COC(=O)N[C@H](C(=O)N[C@@H](Cc1ccccc1)[C@@H](O)CN(Cc1ccc(-c2ccccn2)cc1)NC(=O)[C@@H](NC(=O)OC)C(C)(C)C)C(C)(C)C` displays Fold change in EC50 (SD) relative to parental strain of 1.0 (0.21)

According to the records, this compound `Cc1cn([C@H]2C[C@H](N=[N+]=[N-])[C@@H](CO)O2)c(=O)[nH]c1=O` displays Fold change in EC50 (SD) relative to parental strain of 0.82 (0.41)

====

System: subtype B gag/pr recombinant viruses
Assay: Multiple-cycle Gag/Pr phenotyping assay
Assay type: cell-based, HIV-1
Conditions: Human immunodeficiency virus 1, read-out: EC50 (mean), sublibrary, V370I/L/T, n=3
# pEC50 per record follows
Lab note — pEC50 values are minus log10 of concentrations in M.

| Compound | Target desc | Quantity | Assay result |
| --- | --- | --- | --- |
| C=C(C)[C@@H]1CC[C@]2(C(=O)O)CC[C@]3(C)[C@H](CC[C@@H]4[C@@]5(C)CC[C@H](OC(=O)CC(C)(C)C(=O)O)C(C)(C)[C@@H]5CC[C@]43C)[C@@H]12 [BVM, reference compound] | subtype B gag/pr recombinant viruses | pEC50 | 6.60 |

According to the records, this compound `C=C(C)[C@@H]1CC[C@]2(C(=O)NCCc3ccccn3)CC[C@]3(C)[C@H](CC[C@@H]4[C@@]5(C)CC=C(c6ccc(C(=O)O)cc6)C(C)(C)[C@@H]5CC[C@]43C)[C@@H]12` displays pEC50 of 7.59

====

# EC50 per record follows
Test system: subtype B gag/pr recombinant viruses
Assay: Multiple-cycle Gag/Pr phenotyping assay
Assay type: cell-based, HIV-1
Details: Human immunodeficiency virus 1, read-out: EC50 (mean), sublibrary, None (WT), n=21
All answers are understood in nM, so give the number only.

| Compound | EC50, nM |
| --- | --- |
| C=C(C)[C@@H]1CC[C@]2(C(=O)O)CC[C@]3(C)[C@H](CC[C@@H]4[C@@]5(C)CC[C@H](OC(=O)CC(C)(C)C(=O)O)C(C)(C)[C@@H]5CC[C@]43C)[C@@H]12 [BVM, reference compound] | 14 |

Now look at this entry.
The compound C=C(C)[C@@H]1CC[C@]2(C(=O)NCCc3ccccn3)CC[C@]3(C)[C@H](CC[C@@H]4[C@@]5(C)CC=C(c6ccc(C(=O)O)cc6)C(C)(C)[C@@H]5CC[C@]43C)[C@@H]12 [BMS-2] on subtype B gag/pr recombinant viruses: EC50 was 14

====

Experiment: Serum binding assay (ultracentrifugation)
Conditions: human, serum
Quantity: fraction unbound at 1 h, 0.052 µM
When you answer, write just the number.

According to the records, this molecule C=C(C)[C@@H]1CC[C@]2(NCCN3CCS(=O)(=O)CC3)CC[C@]3(C)[C@H](CC[C@@H]4[C@@]5(C)CC=C(c6ccc(C(=O)O)cc6)C(C)(C)[C@@H]5CC[C@]43C)[C@@H]12 [BMS-955176] displays fraction unbound at 1 h, 0.052 µM of 0.14

====

System: subtype B gag/pr recombinant viruses
Test: Multiple-cycle Gag/Pr phenotyping assay
Type: cell-based, HIV-1
Details: Human immunodeficiency virus 1, read-out: EC50 (mean), sublibrary, V362I, n=3
# EC50 per record follows
All answers are understood in nM, so give the number only.

| Compound | Target desc | EC50 (nM) |
| --- | --- | --- |
| C=C(C)[C@@H]1CC[C@]2(C(=O)NCCc3ccccn3)CC[C@]3(C)[C@H](CC[C@@H]4[C@@]5(C)CC=C(c6ccc(C(=O)O)cc6)C(C)(C)[C@@H]5CC[C@]43C)[C@@H]12 | subtype B gag/pr recombinant viruses | 29 |

The compound C=C(C)[C@@H]1CC[C@]2(C(=O)O)CC[C@]3(C)[C@H](CC[C@@H]4[C@@]5(C)CC[C@H](OC(=O)CC(C)(C)C(=O)O)C(C)(C)[C@@H]5CC[C@]43C)[C@@H]12 [BVM, reference compound] on subtype B gag/pr recombinant viruses: EC50 was 36

====

# Fold change in EC50 (SD) relative to parental strain per record follows
Tested on: INI (140S, 148H) resistant virus (NLRepRluc-G140S/Q148H)
Type: cell-based, HIV-1

Before answering, review these 2 worked examples.
| Chem smiles | Assay result |
| --- | --- |
| CC(C)CN(C[C@@H](O)[C@H](Cc1ccccc1)NC(=O)O[C@H]1CO[C@H]2OCC[C@H]21)S(=O)(=O)c1ccc(N)cc1 | 1.1 (0.1) |
| Cc1cc(/C=C/C#N)cc(C)c1Nc1ccnc(Nc2ccc(C#N)cc2)n1 | 1.0 (0.5) |

Now look at this entry.
According to the records, this compound `Cc1nnc(C(=O)NC(C)(C)c2nc(C(=O)NCc3ccc(F)cc3)c(O)c(=O)n2C)o1` displays Fold change in EC50 (SD) relative to parental strain of >340 (72)
